# key: entry, value: log10 Ki
- Study System: LHRH receptors (Rattus norvegicus)
- Construct: Pituitary membranes containing LHRH receptors are prepared in batches from quick-frozen rat pituitaries; tissue Hilltop Labs; host or cells: rat pituitary membranes
- Sequence (P30969 1-327): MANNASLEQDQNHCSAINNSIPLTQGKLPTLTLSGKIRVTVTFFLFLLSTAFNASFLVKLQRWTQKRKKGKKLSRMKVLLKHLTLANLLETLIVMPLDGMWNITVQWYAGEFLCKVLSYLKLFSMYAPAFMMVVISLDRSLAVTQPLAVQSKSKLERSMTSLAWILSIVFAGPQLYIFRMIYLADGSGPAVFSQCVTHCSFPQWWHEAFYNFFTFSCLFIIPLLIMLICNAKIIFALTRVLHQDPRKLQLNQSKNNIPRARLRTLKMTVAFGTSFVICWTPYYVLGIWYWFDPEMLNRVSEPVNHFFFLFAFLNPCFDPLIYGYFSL
- Experiment: Receptor Binding (radioligand receptor binding assay)
- Condition Details: table 3; rat pituitary membranes, radioiodinated [D-Leu^6 -des Gly^10 ]-LHRH ethyl amide 50 pM, 2 hours at 4° C.; read-out: Receptor Binding pkI (converted)
Numbered stars: 1 amine (or outer) side, 2 acyl side, 3 side chain; on linkers, the order of the positions; unused ones are H or OH. Square brackets hold non-standard residues; d marks the D form. Peptide text beside a SMILES is read from it. * marks the point of attachment. Propanoyl(3-indol-3-yl) = O=C(CCc1c[nH]c2ccccc12)*; Propanoyl(3-(4-F-phenyl)) = O=C(CCc1ccc(F)cc1)*; Propanoyl(3-(4-MeO-Ph)) = COc1ccc(CCC(=O)*)cc1; Acetyl(1-naphthyl) = O=C(Cc1cccc2ccccc12)*; 1Nal = N[C@@H](Cc1cccc2ccccc12)C(=O)O; d2Nal = N[C@H](Cc1ccc2ccccc2c1)C(=O)O; NMeY = CN[C@@H](Cc1ccc(O)cc1)C(=O)O; dNMeL = CN[C@H](CC(C)C)C(=O)O; Nicotinoyl = O=C(c1cccnc1)*; Morpholide = C1CN(*)CCO1; CO = O=C([*:1])[*:2]; Bn = c1ccc(C*)cc1; For = O=C*
Hey, these are logged values: log10 of Ki, nM being the unit before logging.

1. CC(C)C[C@H](NC(=O)[C@@H](Cc1ccc2ccccc2c1)NC(=O)[C@H](Cc1ccc(O)cc1)NC(=O)[C@H](CO)NC(=O)CCc1c[nH]c2ccccc12)C(=O)N[C@@H](CCCNC(=N)N)C(=O)N1CCC[C@H]1C(=O)NCC(N)=O [Compound 47] ({Propanoyl(3-indol-3-yl)}-SY[d2Nal]LRPG-NH2)
0.63
2. CCNC(=O)[C@@H]1CCCN1C(=O)[C@H](CCCNC(=N)N)NC(=O)[C@H](CC(C)C)NC(=O)[C@@H](Cc1c[nH]c2ccccc12)NC(=O)[C@H](Cc1ccc(O)cc1)NC(=O)[C@H](CO)NC(=O)CCc1ccc(OC)cc1 [Compound 78] ({Propanoyl(3-(4-MeO-Ph))}-SY[dW]LRP-NHEt)
1.03
3. CCNC(=O)[C@@H]1CCCN1C(=O)[C@H](CCCN=C(N)N)NC(=O)[C@H](CC(C)C)NC(=O)[C@@H](Cc1c[nH]c2ccccc12)NC(=O)[C@H](Cc1ccc(O)cc1)NC(=O)[C@H](CO)NC(=O)CCc1c[nH]c2ccccc12 [Compound 24] ({Propanoyl(3-indol-3-yl)}-SY[dW]LRP-NHEt)
0.57
4. CCNC(=O)[C@@H]1CCCN1C(=O)[C@H](CCCNC(=N)N)NC(=O)[C@H](CC(C)C)NC(=O)[C@@H](CCCCNC(=O)c1cccnc1)NC(=O)[C@H](Cc1ccc(O)cc1)NC(=O)[C@H](CO)NC(=O)[C@H](Cc1c[nH]c2ccccc12)NC(=O)[C@H](Cc1ccccc1)NC(=O)N1CCOCC1 [Compound 117] ({Morpholide-CO}-FWSY[dK](Nicotinoyl)LRP-NHEt)
0.27

Any idea what its log10 Ki is? The compound is CC(C)C[C@H](NC(=O)[C@@H](Cc1cn(C=O)c2ccccc12)NC(=O)[C@H](Cc1ccc(O)cc1)NC(=O)[C@H](CO)NC(=O)[C@@H](Cc1cn(C=O)c2ccccc12)NC(=O)CCc1ccc(F)cc1)C(=O)N[C@@H](CCCNC(=N)N)C(=O)N1CCC[C@H]1C(=O)N[C@H](C)C(N)=O [Compound 123] ({Propanoyl(3-(4-F-phenyl))}-[dW](For)SY[dW](For)LRP[dA]-NH2)
-0.48

Any idea what its log10 Ki is? The compound is CCNC(=O)[C@@H]1CCCN1C(=O)[C@H](CCCNC(=N)N)NC(=O)[C@H](CC(C)C)NC(=O)[C@@H](Cc1c[nH]c2ccccc12)NC(=O)[C@H](Cc1ccc(O)cc1)N(C)C(=O)[C@H](CO)NC(=O)[C@H](Cc1c[nH]c2ccccc12)NC(=O)[C@H](Cc1ccccc1)NC(=O)N1CCOCC1 [Compound 114] ({Morpholide-CO}-FWS[NMeY][dW]LRP-NHEt)
-2.24

Any idea what its log10 Ki is? The compound is CCNC(=O)[C@@H]1CCCN1C(=O)[C@H](CCCNC(=N)N)NC(=O)[C@H](CC(C)C)NC(=O)[C@@H](CC(C)C)N(C)C(=O)[C@H](Cc1ccc(O)cc1)NC(=O)[C@H](CO)NC(=O)CCc1c[nH]c2ccccc12 [Compound 58] ({Propanoyl(3-indol-3-yl)}-SY[dNMeL]LRP-NHEt)
1.35

Any idea what its log10 Ki is? The compound is CCNC(=O)[C@@H]1CCCN1C(=O)[C@H](CCCNC(=N)N)NC(=O)[C@H](CC(C)C)NC(=O)[C@@H](Cc1c[nH]c2ccccc12)NC(=O)[C@H](Cc1ccc(O)cc1)NC(=O)[C@H](CO)NC(=O)[C@H](Cc1c[nH]c2ccccc12)NC(=O)[C@H](Cc1cccc2ccccc12)NC(=O)N1CCOCC1 [Compound 110] ({Morpholide-CO}-[1Nal]WSY[dW]LRP-NHEt)
-1.00

Any idea what its log10 Ki is? The compound is CCNC(=O)[C@@H]1CCCN1C(=O)[C@H](CCCNC(=N)N)NC(=O)[C@H](CC(C)C)NC(=O)[C@@H](CCCNC(=N)N)NC(=O)[C@H](Cc1ccc(O)cc1)NC(=O)[C@H](COCc1ccccc1)NC(=O)Cc1cccc2ccccc12 [Compound 38] ({Acetyl(1-naphthyl)}-S(Bn)Y[dR]LRP-NHEt)
1.46
